Tested target: GRPR (Homo sapiens, UniProt P30550)
Construct: generated using GRPR-expressing PC-3 cells; endogenous in cells; host or cells: PC-3 cells
Sequence (P30550 whole entry): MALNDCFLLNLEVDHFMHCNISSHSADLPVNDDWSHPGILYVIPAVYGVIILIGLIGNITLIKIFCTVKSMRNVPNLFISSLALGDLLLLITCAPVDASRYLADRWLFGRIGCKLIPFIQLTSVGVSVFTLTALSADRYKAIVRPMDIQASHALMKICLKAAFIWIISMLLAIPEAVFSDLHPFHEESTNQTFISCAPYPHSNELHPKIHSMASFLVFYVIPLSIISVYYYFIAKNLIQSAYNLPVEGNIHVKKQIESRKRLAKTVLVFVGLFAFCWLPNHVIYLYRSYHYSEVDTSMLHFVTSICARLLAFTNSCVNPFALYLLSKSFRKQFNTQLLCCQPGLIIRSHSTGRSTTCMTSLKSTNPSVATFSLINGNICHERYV
Assay procedure: In vitro competition binding assay using PC-3 cells and [^125I-Tyr^4]Bombesin as the radioligand
Conditions used: PC-3 cells, mean ± SD, n = 3, read-out: GRPR binding affinity (Ki)
Non-standard residues stand in square brackets, D forms with d. Residues, ends and D or L forms follow the SMILES beside them. Thz = O=C(O)[C@@H]1CSCN1; Abu = CC[C@H](N)C(=O)O
Metric: pKi
Reminder that pKi is minus the log10 of a molar concentration.

molecule=CC(C)C[C@H](NC(=O)[C@H](Cc1c[nH]cn1)NC(=O)CNC(=O)[C@@H](NC(=O)[C@H](C)NC(=O)[C@H](Cc1c[nH]c2ccccc12)NC(=O)[C@H](CCC(N)=O)NC(=O)[C@H](N)Cc1ccccc1)C1CCC1)C(=O)N1CSC[C@H]1C(N)=O metric=pKi recorded_result=7.45

Query block: Give a short answer stating reported pKi for CC[C@H](NC(=O)[C@H](Cc1c[nH]c2ccccc12)NC(=O)[C@H](CCC(N)=O)NC(=O)[C@H](N)Cc1ccccc1)C(=O)N[C@H](C(=O)NCC(=O)N[C@@H](Cc1c[nH]cn1)C(=O)N[C@@H](CC(C)C)C(=O)N1CSC[C@H]1C(N)=O)C(C)C [LW01078] (H-[dF]QW[Abu]VGHL[Thz]-NH2) .
Result block: 7.57

* * *

Tested target: GRPR (Homo sapiens, UniProt P30550)
Construct: generated using GRPR-expressing PC-3 cells; endogenous in cells; host or cells: PC-3 cells
Assay procedure: In vitro competition binding assay using PC-3 cells and [^125I-Tyr^4]Bombesin as the radioligand
Conditions used: PC-3 cells, mean ± SD, n = 3, read-out: GRPR binding affinity (Ki)
pKi: −log10 of the molar value.
Overview of recorded pKi for various compounds

smiles_notation=CC(C)C[C@H](NC(=O)[C@H](Cc1c[nH]cn1)NC(=O)CNC(=O)[C@@H](NC(=O)[C@H](C)NC(=O)[C@H](Cc1c[nH]c2ncccc12)NC(=O)[C@H](CCC(N)=O)NC(=O)[C@H](N)Cc1ccccc1)C(C)C)C(=O)N1CSC[C@H]1C(N)=O metric=pKi recorded_result="< 6.82"

Query block: Give a short answer stating reported pKi for `CC(C)C[C@H](NC(=O)[C@H](Cc1c[nH]cn1)NC(=O)CNC(=O)[C@@H](NC(=O)[C@H](C)NC(=O)[C@H]1Cc2c([nH]c3ccccc23)CN1C(=O)[C@H](CCC(N)=O)NC(=O)[C@H](N)Cc1ccccc1)C(C)C)C(=O)N1CSC[C@H]1C(N)=O` .
Result block: < 5.00

Query block: Give a short answer stating reported pKi for `CC(C)=C(NC(=O)[C@H](C)NC(=O)[C@H](Cc1c[nH]c2ccccc12)NC(=O)[C@H](CCC(N)=O)NC(=O)[C@H](N)Cc1ccccc1)C(=O)NCC(=O)N[C@@H](Cc1c[nH]cn1)C(=O)N[C@@H](CC(C)C)C(=O)N1CSC[C@H]1C(N)=O` .
Result block: < 5.00

Just for reference, paper PMC10837402 is where these values come from.
